# Target: T1, human CD8α/β (human, UniProt P01732 22-182; P10966 22-170)
# T1 construct: Soluble heterodimer used in SPR and in the Carterra binning (there printed only as CD8α/β); also called hCD8α/β
# T1 sequence (P01732 22-182, chain 1 of 2): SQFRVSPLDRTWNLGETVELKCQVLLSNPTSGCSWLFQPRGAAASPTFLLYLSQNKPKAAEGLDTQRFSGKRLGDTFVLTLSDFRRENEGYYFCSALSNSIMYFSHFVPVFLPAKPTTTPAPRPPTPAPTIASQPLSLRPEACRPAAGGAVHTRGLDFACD
# T1 sequence (P10966 22-170, chain 2 of 2): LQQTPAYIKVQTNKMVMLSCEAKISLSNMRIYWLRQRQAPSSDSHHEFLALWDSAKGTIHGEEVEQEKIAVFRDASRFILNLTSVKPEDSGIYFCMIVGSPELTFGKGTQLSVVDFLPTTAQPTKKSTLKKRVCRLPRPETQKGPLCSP
# Assay notes: SPR, antibody captured on Protein A chip, hCD8α/β as analyte
Metric: Fold Change to Parental Calculated KD (fold)
The answer is to be given in fold; state only the numeric part.

humanized 02A01-VH4-VK2 (antibody, human IgG1, V domains shown, human IgG1 format; also called 02-VH4/VK2) VH: EVQLVQSGAEVKKPGATVKISCKASGYTFTDFTMHWVQQAPGKGLEWIGLVNPNNGGNIYAEKFQGRATLTVDTSTSTAYMELSSLRSEDTAVYYCGRVPLYTSHGMDYWGQGTLVTVSS VL: EIVLTQSPATLSVSPGERATISCRASESVDSYDINSMHWYQQKPGQAPRLLIYRASHLQSGIPARFSGSGSRTDFTLTISSVEPEDFATYYCQQSNEDPLTFGQGTKLEIK; 2.1
humanized 02A01-VH6-VK2 (antibody, human IgG1, V domains shown, human IgG1 format; also called 02-VH6/VK2) VH: EVQLVQSGAEVKKPGATVKISCKASGYTFTDFTMHWVQQAPGKGLEWIGLVNPNNGGNIYAEKFQGRVTLTVDTSTSTAYMELSSLRSEDTAVYYCGRVPLYTSHGMDYWGQGTLVTVSS VL: EIVLTQSPATLSVSPGERATISCRASESVDSYDINSMHWYQQKPGQAPRLLIYRASHLQSGIPARFSGSGSRTDFTLTISSVEPEDFATYYCQQSNEDPLTFGQGTKLEIK; 1.79
humanized 02A01-VH3-VK3 (antibody, human IgG1, V domains shown, human IgG1 format; also called 02-VH3/VK3) VH: EVQLVQSGAEVKKPGATLKISCKASGYTFTDFTMHWVQQAPGKGLEWIGLVNPNNGGNIYAEKFQGRATLTVDTSTSTAYMELSSLRSEDTSVYYCGRVPLYTSHGMDYWGQGTLVTVSS VL: EIVLTQSPATLSLSPGERATISCRASESVDSYDINSMHWYQQKPGQAPRLLIYRASHLQSGIPARFSGSGSRTDFTLTISSLEPEDFATYYCQQSNEDPLTFGQGTKLEIK; 2.37

Quick check: Fold Change to Parental Calculated KD of humanized 02A01-VH6-VK1 (antibody, human IgG1, V domains shown, human IgG1 format; also called 02-VH6/VK1) VH: EVQLVQSGAEVKKPGATVKISCKASGYTFTDFTMHWVQQAPGKGLEWIGLVNPNNGGNIYAEKFQGRVTLTVDTSTSTAYMELSSLRSEDTAVYYCGRVPLYTSHGMDYWGQGTLVTVSS VL: EIVLTQSPATLSVSPGERATISCRASESVDSYDINSMHWYQQKPGQPPRLLIYRASHLQSGIPARFSGSGSRTDFTLTISSVEPEDFATYYCQQSNEDPLTFGQGTKLEIK ?
1.71

Quick check: Fold Change to Parental Calculated KD of humanized 02A01-VH4-VK3 (antibody, human IgG1, V domains shown, human IgG1 format; also called 02-VH4/VK3) VH: EVQLVQSGAEVKKPGATVKISCKASGYTFTDFTMHWVQQAPGKGLEWIGLVNPNNGGNIYAEKFQGRATLTVDTSTSTAYMELSSLRSEDTAVYYCGRVPLYTSHGMDYWGQGTLVTVSS VL: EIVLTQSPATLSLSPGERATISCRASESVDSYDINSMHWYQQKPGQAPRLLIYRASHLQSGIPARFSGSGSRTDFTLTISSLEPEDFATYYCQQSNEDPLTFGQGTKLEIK ?
2.13

Quick check: Fold Change to Parental Calculated KD of Murine 02A01 (antibody, V domains shown, Recombinantly produced IgG; also called 02-parental; 02-Parent) VH: EVQLQQSGPELVKPGASLKISCKASGYTFTDFTMHWVKQSHGKSLEWIGLVNPNNGGNIYNQNFKGKATLTVDTSSSTAYMELRSLTSEDSSVYYCGRVPLYTSHGMDYWGQGTSVTVSS VL: DIVLTQSPAFLAVSLGQRATISCRASESVDSYDINSMHWYQQKPGQPPKLLIYRASHLQSGIPARFSGSGSRTDFTLTINFVEADDVATYYCQQSNEDPLTFGAGTKLELK ?
1

Quick check: Fold Change to Parental Calculated KD of humanized 02A01-VH6-VK3 (antibody, human IgG1, V domains shown, human IgG1 format; also called 02-VH6/VK3) VH: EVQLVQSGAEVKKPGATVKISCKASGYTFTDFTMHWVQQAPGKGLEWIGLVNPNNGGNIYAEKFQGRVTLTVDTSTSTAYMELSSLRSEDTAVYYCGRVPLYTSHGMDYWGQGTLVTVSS VL: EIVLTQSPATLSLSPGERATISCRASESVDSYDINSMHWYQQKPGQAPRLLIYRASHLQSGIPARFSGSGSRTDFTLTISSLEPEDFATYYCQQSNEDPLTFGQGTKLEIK ?
2.12
